species: Rattus norvegicus; assay: Effect on electron transport protein complex 2 in Wistar-Han rat liver mitochondria using succinate as substrate assessed as phosphorylative lag phase at 6 ug/mg relative to control
Readout name: Activity (%)

1) C=C(C)[C@@H]1CC[C@]2(COC(=O)C[n+]3ccc(N(C)C)cc3)CC[C@]3(C)[C@H](CC[C@@H]4[C@@]5(C)CC[C@H](OC(=O)C[n+]6ccc(N(C)C)cc6)C(C)(C)[C@@H]5CC[C@]43C)[C@@H]12.[Br-].[Br-] :: 40
2) C=C(C)[C@@H]1CC[C@]2(COC(=O)C[n+]3ccc(N(C)C)cc3)CC[C@]3(C)[C@H](CC[C@@H]4[C@@]5(C)CC[C@H](O)C(C)(C)[C@@H]5CC[C@]43C)[C@@H]12 :: 42
3) C=C(C[n+]1ccc(N(C)C)cc1)[C@@H]1CC[C@]2(C(=O)O)CC[C@]3(C)[C@H](CC[C@@H]4[C@@]5(C)CC[C@H](O)C(C)(C)[C@@H]5CC[C@]43C)[C@@H]12.[Br-] :: 57
4) C=C(C)[C@@H]1CC[C@]2(CO)CC[C@]3(C)[C@H](CC[C@@H]4[C@@]5(C)CC[C@H](OC(=O)C[n+]6ccc(N(C)C)cc6)C(C)(C)[C@@H]5CC[C@]43C)[C@@H]12.[Cl-] :: 53
5) C=C(C[n+]1ccc(N(C)C)cc1)[C@@H]1CC[C@]2(COC(=O)C[n+]3ccc(N(C)C)cc3)CC[C@]3(C)[C@H](CC[C@@H]4[C@@]5(C)CC[C@H](OC(=O)C[n+]6ccc(N(C)C)cc6)C(C)(C)[C@@H]5CC[C@]43C)[C@@H]12.[Br-].[Br-].[Br-] :: 45.5
